Listed compounds paired with reported half-life
# assayNotes: Half-life in Sprague-Dawley rat at 10 mg/kg, po measured upto 24 hrs by LC/MS-MS analysis
# Type: ADME, organism-based
# conditionDescription: in vivo
Report the value in min with no unit label.

> print(dat)
                                entrysmiles  endpointresult
1  CC1(C)CCOC(=O)[C@@H]2C[C@@H](C[C@@H](C#N)NC(=O)[C@@H]3[C@@H]4[C@H](CN3C(=O)[C@H]1NC(=O)C(F)(F)F)C4(C)C)C(=O)N2              20

[in] Fill in: half-life of CC(C)(C)[C@H](NC(=O)C(F)(F)F)C(=O)N1C[C@H]2[C@@H]([C@H]1C(=O)N[C@H](C#N)C[C@@H]1CCNC1=O)C2(C)C is ___
[out] 76.2

[in] And what about the compound CC1(C)COC(=O)[C@@H]2C[C@@H](C[C@@H](C#N)NC(=O)[C@@H]3[C@@H]4[C@H](CN3C(=O)[C@H]1NC(=O)C(F)(F)C1CC1)C4(C)C)C(=O)N2 ?
[out] 38.5

[in] And what about the compound COC(=O)N[C@@H]1C(=O)N2C[C@H]3[C@@H]([C@H]2C(=O)N[C@H](C#N)C[C@@H]2C[C@H](NC2=O)C(=O)OCC1(C)C)C3(C)C ?
[out] 68.4

---

# Tested on: SARS-CoV-2
# assayNotes: microbe, parasite or virus in culture
# conditionDescription: Severe acute respiratory syndrome coronavirus 2, Huh-7, 24 h
assayEndpoint: EC50

Please review the entries below; each comes with its answer.
> print(dat)
                                 entrysmiles  assayendpoint  endpointresult
 1  CN1CC(C)(C)[C@H](NC(=O)C(F)(F)F)C(=O)N2C[C@H]3[C@@H]([C@H]2C(=O)N[C@H](C#N)C[C@@H]2C[C@H](NC2=O)C1=O)C3(C)C           EC50      > 10000 nM
 2  CC1(C)CNC(=O)[C@@H]2C[C@@H](C[C@@H](C#N)NC(=O)[C@@H]3[C@@H]4[C@H](CN3C(=O)[C@H]1NC(=O)OCc1ccccc1)C4(C)C)C(=O)N2           EC50           73 nM
 3  CC1(C)COC(=O)[C@@H]2C[C@@H](C[C@@H](C#N)NC(=O)[C@@H]3[C@@H]4[C@H](CN3C(=O)[C@H]1NC(=O)OCc1ccccc1)C4(C)C)C(=O)N2           EC50           25 nM
 4  CC1(C)CNC(=O)[C@@H]2C[C@@H](C[C@@H](C#N)NC(=O)[C@@H]3[C@@H]4[C@H](CN3C(=O)[C@H]1NC(=O)C1CC1)C4(C)C)C(=O)N2           EC50         6570 nM
 5  CC1(C)COC(=O)[C@@H]2C[C@@H](C[C@@H](C#N)NC(=O)[C@@H]3[C@@H]4[C@H](CN3C(=O)[C@H]1NC(=O)OC1CC1)C4(C)C)C(=O)N2           EC50           67 nM
 6  COC(=O)N[C@@H]1C(=O)N2C[C@H]3[C@@H]([C@H]2C(=O)N[C@H](C#N)C[C@@H]2C[C@H](NC2=O)C(=O)OCCC1(C)C)C3(C)C           EC50          179 nM
 7  CC1(C)COC(=O)[C@@H]2C[C@@H](C[C@@H](C#N)NC(=O)[C@@H]3[C@@H]4[C@H](CN3C(=O)[C@H]1NC(=O)C(F)(F)F)C4(C)C)C(=O)N2           EC50          181 nM
 8  CC1(C)COC(=O)[C@@H]2C[C@@H](C[C@@H](C#N)NC(=O)[C@@H]3[C@@H]4[C@H](CN3C(=O)[C@H]1NC(=O)C1CC1)C4(C)C)C(=O)N2           EC50          190 nM
 9  CC1(C)CCCC[C@@H]2C[C@@H](C[C@@H](C#N)NC(=O)[C@@H]3[C@@H]4[C@H](CN3C(=O)[C@H]1NC(=O)C(F)(F)F)C4(C)C)C(=O)N2           EC50           84 nM
10  CC1(C)COC(=O)[C@@H]2C[C@@H](C[C@@H](C#N)NC(=O)[C@@H]3[C@@H]4[C@H](CN3C(=O)[C@H]1NC(=O)C(F)(F)c1ccc(F)cc1)C4(C)C)C(=O)N2           EC50          130 nM

[in] Fill in: EC50 of CC1(C)COC(=O)[C@@H]2C[C@@H](C[C@@H](C#N)NC(=O)[C@@H]3[C@@H]4[C@H](CN3C(=O)[C@H]1NC(=O)CC1CC1)C4(C)C)C(=O)N2 is ___
[out] 310 nM

[in] And what about the molecule CC1(C)CCCC[C@@H]2C[C@@H](C[C@@H](C#N)NC(=O)[C@@H]3[C@@H]4[C@H](CN3C(=O)[C@H]1NC(=O)OCc1ccccc1)C4(C)C)C(=O)N2 ?
[out] 31 nM

[in] And what about the molecule CC1(C)COC(=O)[C@@H]2C[C@@H](C[C@@H](C#N)NC(=O)[C@@H]3[C@@H]4[C@H](CN3C(=O)[C@H]1NC(=O)C(F)(F)C1CC1)C4(C)C)C(=O)N2 ?
[out] 36 nM

---

# subjectOfTest: Replicase polyprotein 1ab (Severe acute respiratory syndrome coronavirus 2, UniProt P0DTD1)
# assayNotes: Inhibition of SARS-CoV-2 3CL protease using Dabcyl-KTSAVLQSGFRKM-(Edans) as substrate preincubated for 30 mins followed by substrate addition and measured after 60 mins by fluorescence based microplate reader assay
assayEndpoint: pIC50
pIC50 here: minus log base 10 of the concentration, concentration in moles per litre.

> print(dat)
                                entrysmiles  assayendpoint  endpointresult
1  CC1(C)COC(=O)[C@@H]2C[C@@H](C[C@@H](C#N)NC(=O)[C@@H]3[C@@H]4[C@H](CN3C(=O)[C@H]1NC(=O)C1CC1)C4(C)C)C(=O)N2          pIC50            7.92
2  COC(=O)N[C@@H]1C(=O)N2C[C@H]3[C@@H]([C@H]2C(=O)N[C@H](C#N)C[C@@H]2C[C@H](NC2=O)C(=O)OCC1(C)C)C3(C)C          pIC50            8.07
3  Cc1cccc(C)c1OCC(=O)N[C@@H]1C(=O)N2C[C@H]3[C@@H]([C@H]2C(=O)N[C@H](C#N)C[C@@H]2C[C@H](NC2=O)C(=O)NCC1(C)C)C3(C)C          pIC50            6.49
4  CC1(C)COC(=O)[C@@H]2C[C@@H](C[C@@H](C#N)NC(=O)[C@@H]3[C@@H]4[C@H](CN3C(=O)[C@H]1NC(=O)C(F)(F)F)C4(C)C)C(=O)N2          pIC50            7.47
5  CC1(C)CCCC[C@@H]2C[C@@H](C[C@@H](C#N)NC(=O)[C@@H]3[C@@H]4[C@H](CN3C(=O)[C@H]1NC(=O)C(F)(F)F)C4(C)C)C(=O)N2          pIC50            8.00

[in] Fill in: pIC50 of CC1(C)CCOC(=O)[C@@H]2C[C@@H](C[C@@H](C#N)NC(=O)[C@@H]3[C@@H]4[C@H](CN3C(=O)[C@H]1NC(=O)C(F)(F)F)C4(C)C)C(=O)N2 is ___
[out] 7.92

[in] And what about the molecule CC1(C)COC(=O)[C@@H]2C[C@@H](C[C@@H](C#N)NC(=O)[C@@H]3[C@@H]4[C@H](CN3C(=O)[C@H]1NC(=O)OCc1ccccc1)C4(C)C)C(=O)N2 ?
[out] 8.19

[in] And what about the molecule CC1(C)COC(=O)[C@@H]2C[C@@H](C[C@@H](C#N)NC(=O)[C@@H]3[C@@H]4[C@H](CN3C(=O)[C@H]1NC(=O)C(F)(F)C1CC1)C4(C)C)C(=O)N2 ?
[out] 7.85

---

Listed compounds paired with reported half-life
# assayNotes: Metabolic stability in human liver microsomes assessed as half life measured upto 60 mins in presence of NADPH by LC/MS-MS analysis
# Format: ADME, Microsome

Please review the entries below; each comes with its answer.
> print(dat)
                                entrysmiles  endpointresult
1  CC1(C)COC(=O)[C@@H]2C[C@@H](C[C@@H](C#N)NC(=O)[C@@H]3[C@@H]4[C@H](CN3C(=O)[C@H]1NC(=O)OC1CC1)C4(C)C)C(=O)N2       > 180 min
2  CC1(C)CNC(=O)[C@@H]2C[C@@H](C[C@@H](C#N)NC(=O)[C@@H]3[C@@H]4[C@H](CN3C(=O)[C@H]1NC(=O)C1CC1)C4(C)C)C(=O)N2       > 180 min
3  CC1(C)COC(=O)[C@@H]2C[C@@H](C[C@@H](C#N)NC(=O)[C@@H]3[C@@H]4[C@H](CN3C(=O)[C@H]1NC(=O)C(F)(F)Cc1ccccc1)C4(C)C)C(=O)N2         1.7 min
4  CC1(C)CCCC[C@@H]2C[C@@H](C[C@@H](C#N)NC(=O)[C@@H]3[C@@H]4[C@H](CN3C(=O)[C@H]1NC(=O)C(F)(F)F)C4(C)C)C(=O)N2         4.4 min
5  CC1(C)COC(=O)[C@@H]2C[C@@H](C[C@@H](C#N)NC(=O)[C@@H]3[C@@H]4[C@H](CN3C(=O)[C@H]1NC(=O)OCc1ccccc1)C4(C)C)C(=O)N2         6.5 min

[in] Fill in: half-life of COC(=O)N[C@@H]1C(=O)N2C[C@H]3[C@@H]([C@H]2C(=O)N[C@H](C#N)C[C@@H]2C[C@H](NC2=O)C(=O)OCC1(C)C)C3(C)C is ___
[out] > 180 min
